experiment: logP by HPLC on reversed-phase column (C 18), EEC Directive 79/B31 Annex V.A8, methods A and B; format: physicochemical; conditions: reversed-phase HPLC column (C 18), LogP method A: HPLC reversed-phase C 18, 43° C., 0.1% aqueous phosphoric acid / acetonitrile, linear gradient 10% to 90% acetonitrile
Assign labels as follows, please: condition met for chromatographic logP below 3; condition not met for chromatographic logP equal to or exceeding 3.

Cc1noc(C)c1C(=O)N(C1CC1)S(=O)(=O)c1ccc(O)cc1O [Compound 592] : condition not met
CCc1c(C(=O)N(C2CC2)S(=O)(=O)c2ccc(O)cc2O)sc(=O)n1C1CC1 [Compound 631] : condition met
Cc1n[nH]c(C)c1C(=O)N(C1CC1)S(=O)(=O)c1ccc(C(F)(F)F)cc1 [Compound 402] : condition met
Cc1noc(C)c1C(=O)N(C1CC1)S(=O)(=O)c1ccc(C(F)(F)F)cc1 [Compound 588] : condition not met
COCCn1c(C)c(C(=O)N(C2CC2)S(=O)(=O)c2ccc(O)cc2O)sc1=O [Compound 620] : condition met
Cc1nn(C)c(O)c1C(=O)N(C1CC1)S(=O)(=O)c1ccc(O)c(C(F)(F)F)c1 [Compound 406] : condition not met

Consider the record given below.
In: hey, is chromatographic logP for CCc1onc(C(C)C)c1C(=O)N(C1CC1)S(=O)(=O)c1ccc(O)c(O)c1 [Compound 595] lower than 3 or not?
Out: condition not met
